Item-by-item account of fold change (FC)
Biological target: Probable G-protein coupled receptor 174 (Homo sapiens, UniProt Q9BXC1)
Sequence (Q9BXC1 whole entry): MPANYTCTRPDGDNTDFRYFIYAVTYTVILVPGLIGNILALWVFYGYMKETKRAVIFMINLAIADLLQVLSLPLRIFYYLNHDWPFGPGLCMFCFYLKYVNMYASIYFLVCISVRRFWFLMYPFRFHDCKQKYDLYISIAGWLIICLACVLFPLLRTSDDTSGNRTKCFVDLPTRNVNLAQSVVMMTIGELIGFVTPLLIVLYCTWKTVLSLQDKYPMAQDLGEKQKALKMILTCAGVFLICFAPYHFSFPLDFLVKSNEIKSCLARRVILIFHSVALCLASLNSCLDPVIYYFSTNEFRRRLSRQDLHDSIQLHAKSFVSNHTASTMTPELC
Assay: Inverse agonist activity at human GPR174 assessed as fold decrease in Gs signalling activity by CRA
Assay type: functional
Details: filed as inverse agonist
Property label: fold change (FC)

>>> result("CCCCCCOc1ccc(C2C3=C(CCCC3=O)NC3=C2C(=O)c2ccccc23)cc1 (centres undefined)")
0.5
>>> result("CS(=O)(=O)c1ccc(C2C3=C(CCCC3=O)NC3=C2C(=O)c2ccccc23)cc1 (centres undefined)")
3.3
>>> result("CCOC(=O)N1CCN(c2cc(N3CCCCC3)c(F)cc2[N+](=O)[O-])CC1")
0.3
>>> result("C=C(C)COc1ccc(NC(=O)Nc2ccccc2)cc1")
0.5
>>> result("O=C1CCCC2=C1C(c1ccc(Cl)cc1)C1=C(N2)c2ccccc2C1=O (centres undefined)")
3
>>> result("Cc1nnc(-c2ccc(C3C4=C(CCCC4=O)NC4=C3C(=O)c3ccccc34)cc2)o1 (centres undefined)")
2.8
>>> result("CCCC(=O)N1CCN(c2cc(N3CCCCC3)c(F)cc2[N+](=O)[O-])CC1")
0.9
>>> result("CCC(=O)N1CCN(c2cc(N3CCCCC3)c(F)cc2[N+](=O)[O-])CC1")
0.5
>>> result("CC(=O)N1CCN(c2cc(N3CCC(C)CC3)c(F)cc2[N+](=O)[O-])CC1")
0.8

src = ChEMBL document CHEMBL4806962
